testedTarget: AP C3-convertase (C3bBb) (Homo sapiens (Human)) (UniProt P01024)
Entries and their measured AP-DAA IC50 follow.
quantityKind: AP-DAA IC50 (nM)

binder: D2D3M3M4 (L205K) (protein) CEVPTRLNSASLKQPYITQNYFPVGTVVEYECRPGYRREPSLSPKLTCLQNLKWSTAVEFCKKKSCPNPGEIRNGQIDVPGGILFGATISFSCNTGYKLFGSTSSFCKISGSSVQWSDPLPECREIYCTPPPKIKNGKHTFSEVEVFEYLDAVTYSCDPAPGPDPFSLIGESTIYCGDNSVWSRAAPECKVVKCRFPVVENGKQISGFGKKFYYKATVMFECDKGFYLDGSDTIVCDSNSTWDPPVPKCLKVL
displayUnit: nM
resultModifier: >
quantitativeReadout: 10
//
binder: D2D3M3M4 (F197I) (protein) CEVPTRLNSASLKQPYITQNYFPVGTVVEYECRPGYRREPSLSPKLTCLQNLKWSTAVEFCKKKSCPNPGEIRNGQIDVPGGILFGATISFSCNTGYKLIGSTSSFCLISGSSVQWSDPLPECREIYCTPPPKIKNGKHTFSEVEVFEYLDAVTYSCDPAPGPDPFSLIGESTIYCGDNSVWSRAAPECKVVKCRFPVVENGKQISGFGKKFYYKATVMFECDKGFYLDGSDTIVCDSNSTWDPPVPKCLKVL
displayUnit: nM
resultModifier: =
quantitativeReadout: 4.4
//
binder: D2D3 (protein) CEVPTRLNSASLKQPYITQNYFPVGTVVEYECRPGYRREPSLSPKLTCLQNLKWSTAVEFCKKKSCPNPGEIRNGQIDVPGGILFGATISFSCNTGYKLFGSTSSFCLISGSSVQWSDPLPECREIY
displayUnit: nM
resultModifier: >
quantitativeReadout: 10
//
binder: D2D3M3M4 (K195Y) (protein) CEVPTRLNSASLKQPYITQNYFPVGTVVEYECRPGYRREPSLSPKLTCLQNLKWSTAVEFCKKKSCPNPGEIRNGQIDVPGGILFGATISFSCNTGYYLFGSTSSFCLISGSSVQWSDPLPECREIYCTPPPKIKNGKHTFSEVEVFEYLDAVTYSCDPAPGPDPFSLIGESTIYCGDNSVWSRAAPECKVVKCRFPVVENGKQISGFGKKFYYKATVMFECDKGFYLDGSDTIVCDSNSTWDPPVPKCLKVL
displayUnit: nM
resultModifier: >
quantitativeReadout: 10
//
binder: D2D3M3M4 (T200Y) (protein) CEVPTRLNSASLKQPYITQNYFPVGTVVEYECRPGYRREPSLSPKLTCLQNLKWSTAVEFCKKKSCPNPGEIRNGQIDVPGGILFGATISFSCNTGYKLFGSYSSFCLISGSSVQWSDPLPECREIYCTPPPKIKNGKHTFSEVEVFEYLDAVTYSCDPAPGPDPFSLIGESTIYCGDNSVWSRAAPECKVVKCRFPVVENGKQISGFGKKFYYKATVMFECDKGFYLDGSDTIVCDSNSTWDPPVPKCLKVL
displayUnit: nM
resultModifier: =
quantitativeReadout: 3.7
